Cited source: PubChem BioAssay AID1918938

tested on: 556581-035-R-J1-PDC complex spheroid viability; assay: Anticancer human tumor 556581-035-R-J1-PDC patient-derived ovarian carcinoma cell line growth inhibition; details: second compound 3.16 µM; first compound 0.1 µM; stronger effect = lower value;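 further: spheroids exposed to agents for seven days; 100% = DMSO vehicle control wells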

compound	viability, T/C / %
CC[C@@]1(O)C(=O)OCc2c1cc1n(c2=O)Cc2cc3c(CN(C)C)c(O)ccc3nc2-1 + NC1CCC(NC2CC2c2ccccc2)CC1	10
CC(C)c1c(-c2ccccc2)nc2c(C#N)c[nH]n2c1=O + NC1CC1c1ccc(-c2cccc(O)c2)cc1	82.5
CC1(C)CCC(CN2CCN(c3ccc(C(=O)NS(=O)(=O)c4ccc(NCC5CCOCC5)c([N+](=O)[O-])c4)c(Oc4cnc5[nH]ccc5c4)c3)CC2)=C(c2ccc(Cl)cc2)C1 + NC1CC1c1ccc(-c2cccc(O)c2)cc1	90.3
O=C(c1cc(Cc2n[nH]c(=O)c3ccccc23)ccc1F)N1CCN(C(=O)C2CC2)CC1 + NC1CC1c1ccc(-c2cccc(O)c2)cc1	80.2
O=C(C=Cn1cnc(-c2cc(C(F)(F)F)cc(C(F)(F)F)c2)n1)NNc1cnccn1 + NC1CCC(NC2CC2c2ccccc2)CC1	67.2
